Collected GI50 values appear next to each entry.
Tested on: IGROV-1
Method: NCI tumour cell line growth inhibition, 48 h
Activity calls are given as the source filed them. Rule as the data show it: active = GI50 up to about 1.1 µM and inactive = higher.

Field: example entries. Status: answers known.
Give the reported GI50 for this molecule. `Cc1ccc2c3c1O[C@H]1c4[nH]c5ccccc5c4C[C@@]4(O)[C@@H](C2)N(C)CC[C@]314`
18 µM (inactive)

Hello, please tell me recorded GI50 for this one: `O=[N+]([O-])/C(Cl)=C(\NCCN/C(C(Cl)=C(Cl)Cl)=C(/Cl)[N+](=O)[O-])C(Cl)=C(Cl)Cl`
62.7 µM (inactive)

Others:
Entry `CCOC(=O)CCNC(=O)c1cc(C)cc2c1Oc1c(cc(C)cc1C(=O)NCCC(=O)OCC)S2` needs its GI50 filled in; supply it.
> 100 µM (inactive)

Report measured GI50; entry is `O=C(O)CCCCn1ccc(=O)[nH]c1=O`
> 100 µM (inactive)

Annotate the molecule `Cc1c(C(=O)C/C(=N/NC(=O)c2ccccc2)C(=O)Nc2ccc(Cl)cc2)[n+]([O-])c2ccccc2[n+]1[O-]` with its measured GI50.
99.5 µM (inactive)

For CC(O)C1OC(n2ccc(=O)[nH]c2=O)CC1n1cncn1 (stereo not given) , write its GI50.
> 100 µM (inactive)

Please indicate GI50 recorded for `Cn1c(=O)c2c(nc3sc4ncccc4c(=O)n32)n(C)c1=O`
> 100 µM (inactive)

Read off the recorded GI50 for `CCCCn1cc[n+](-c2nc3ccccc3n2C)c1`
> 100 µM (inactive)

Supply reported GI50 belonging to this molecule: `C/C(=N\O)c1cccc[n+]1Cc1ccccc1`
> 100 µM (inactive)

Look up and report measured GI50 for this entry: COc1cc(C2SCC(=O)N2c2ccc(Cl)cc2)cc(OC)c1OC (stereo not given)
20.7 µM (inactive)

Fill in GI50 for record `Cc1nc2ccc(/N=N/N(C)C)cc2[nH]1`
> 100 µM (inactive)

Please list GI50 recorded for the molecule `CCCCCCCCCCCc1c(O)c(=O)c2c(oc3c(=O)c(CCCCCCCCCCC)c(O)c(=O)c3n2-c2ccc(N(C)C)cc2)c1=O`
24.3 µM (inactive)

Identify measured GI50 associated with COc1ccc(C(Cc2ccccc2)C2NC(=S)NC2=O)cc1 (stereo not given)
> 25 µM (inactive)

Specify GI50 for `CCCc1c(-c2ccccc2)[nH]c2ccccc2c1=O` and stop.
> 100 µM (inactive)

Find the measured GI50 of `CCSC1=C(C)N(/C=N/C(C)(C)C)CC1` and report it.
> 100 µM (inactive)

Supply measured GI50 of `CC(C)(C)N(Cc1ccc2c(c1)OCO2)C(=O)/C=C\Sc1ccccc1` in your reply.
83.2 µM (inactive)

Identify measured GI50 corresponding to CC(=O)OC12CC(C(F)(F)F)(C(F)(F)F)OC1(OC(C)=O)CC(C(F)(F)F)(C(F)(F)F)O2 (stereo not given)
1.41 µM (inactive)

Specify measured GI50 for `Cn1c2ccccc2c(=NNc2ccc(S(=O)(=O)N=C(N)N)cc2)c2ccccc21` .
11.7 µM (inactive)

Identify measured GI50 corresponding to `COc1ccc(Nc2nc(NNC(=O)Cc3ccccc3)nc(NNC(=O)c3ccncc3)n2)cc1`
> 10 µM (inactive)

Look up and state reported GI50 for Clc1ccc(C2SCc3nc4ccccc4n32)c(Cl)c1 (stereo not given)
15.5 µM (inactive)

Find the measured GI50 of C/C(=N\NS(=O)(=O)c1ccc(C)cc1)C(CN1CCCCC1)C(c1ccccc1)c1c(O)c2ccccc2oc1=O (stereo not given) and report it.
> 100 µM (inactive)

Could you please provide reported GI50 for COC(=O)C1=C(O)C(C(=O)OC)[C@]2(O)[C@H](C(=O)OC)[C@H]1C[C@@H](c1ccc(OC)cc1)[C@H]2C(=O)OC (stereo not given in full) ? Thanks!
34.6 µM (inactive)
